- System: L1210 leukemia ip in BDF1 mice, survival T/C
- assay_name: NCI In Vivo Anticancer Drug Screen. Data for tumor model L1210 Leukemia (intraperitoneal) in B6D2F1 (BDF1) mice
- condition: endpoint: mean survival time; dose: 25.0 mg/kg/injection; schedule: Q01DX009 (ip); vehicle: saline; higher = longer survival
Inconclusive results and toxic doses are left out.
Recorded T/C, one value per entry.

compound	T/C
S=C(n1ccnc1)n1ccnc1	100 % of control
C#CCSC(=N)N	101 % of control
O=C(/C=C/c1ccc2c(c1)OCO2)/C=C/c1ccc2c(c1)OCO2	89 % of control
CCN1CCc2ccccc2C1c1ccccc1 (centres undefined)	104 % of control
CC(C)N1CN(C(C)C)CN(C(C)C)C1	103 % of control
C1CCC2(CC1)CN2	103 % of control
N#CCCSC(=N)N	107 % of control
CNC(C)COc1ccccc1 (centres undefined)	101 % of control
CNN	103 % of control
COc1cc2c(cc1OCc1ccccc1)C=CN(C(=O)c1ccccc1)C2C#N (centres undefined)	100 % of control
C=CC[Se]c1ncnc2c1c(C#N)cn2C1OC(CO)C(O)C1O (centres undefined)	92 % of control
Nc1ccc(N=Nc2ccc(C(=O)Nc3ccc4cc(S(=O)(=O)O)ccc4c3)cc2)c(N)c1N=Nc1ccc(N=Nc2ccc(O)c(C(=O)O)c2)cc1	105 % of control
C[n+]1c2ccccc2cc2ccc(N=[N+]=[N-])cc21	98 % of control
COc1cccc(CC2=NCCc3cc(OC)c(OC)cc32)c1	103 % of control

====

Entries and their measured T/C follow.
- Test system: L1210 leukemia ip in BDF1 mice, survival T/C
- assay_name: NCI In Vivo Anticancer Drug Screen. Data for tumor model L1210 Leukemia (intraperitoneal) in B6D2F1 (BDF1) mice
- condition: endpoint: mean survival time; dose: 200.0 mg/kg/injection; schedule: Q01DX001 (ip); vehicle: saline with Tween-80; higher = longer survival
Toxic doses and inconclusive results are not listed.
measurement_name: T/C

compound	observed_value
O=C(Nc1ccc(I)cc1)Nc1ccc(Cl)cc1[N+](=O)[O-]	90 % of control
CC(=O)c1c(C)[nH]c2ccccc12	103 % of control
Cc1ccc(NC(=S)NC(=O)c2cccc([N+](=O)[O-])c2)cc1C	101 % of control
O=C(Nc1ccc(Cl)cc1[N+](=O)[O-])Oc1ccc(-c2ccccc2)cc1	100 % of control
COc1cc(C)ccc1I	100 % of control
COc1nsc(N)n1	104 % of control
Cc1cc(C)c2c(C#N)cn(-c3cccc([N+](=O)[O-])c3)c2n1	95 % of control
NC(Cc1cccnc1)C(=O)O (centres undefined)	103 % of control
Nc1ccnc(SCc2ccccc2)n1	93 % of control
CN=NC(C)C	107 % of control
CCCCCCCCCCC(CCCCCCC)(CCCCCCCC)CCCCCCCCC (centres undefined)	107 % of control
Nc1ccnc(OCc2ccccc2)n1	100 % of control
CCOC(=O)c1ccc(NC(=O)Nc2cccc3c(O)cccc23)cc1	86 % of control
CC(c1ccccc1)C1CCCCC1 (centres undefined)	96 % of control

====

- System: L1210 leukemia ip in BDF1 mice, survival T/C
- assay_name: NCI In Vivo Anticancer Drug Screen. Data for tumor model L1210 Leukemia (intraperitoneal) in B6D2F1 (BDF1) mice
- condition: endpoint: mean survival time; dose: 12.5 mg/kg/injection; schedule: Q04DX002 (ip); vehicle: saline with Tween-80; higher = longer survival
- Method: The antitumor activity of compounds was measured in mice bearing transplantable tumors. Survival or tumor size were measured and the results are expressed as the measurement made in the treated group (T) divided by the measurement made in the vehicle treated control group (C). The tumor model used in this assay is L1210 Leukemia (intraperitoneal) in B6D2F1 (BDF1) mice
Toxic doses and inconclusive results are not listed.

compound	T/C
CCOc1cc[n+](C)c2ccc(C)cc12	98 % of control
[N-]=[N+]=NC1=C(Cl)C(=O)c2ccccc2C1=O	96 % of control
C1CCC2[N-]CC3CCCCC3[N-]CC3CCCCC3[N-]CC3CCCCC3[N-]CC2C1.[Ni+2].[O-][Cl+3]([O-])([O-])O (centres undefined)	101 % of control
O=[N+]([O-])c1c[c]([Hg][Cl])c(O)[c]([Hg][Cl])c1	93 % of control
